Values were extracted from PubChem BioAssay (NCI).

- Tested on: HL-60(TB) leukemia
- measurement.notes: NCI-60 one-dose screen, 48 h
- conditions.used: 10 µM unless noted
About 83,000 compounds went through this panel and 20% of them were active in at least one assay; those are over-represented in the sample as a whole. Active and inactive are the calls of the source. How the source made its calls: active means growth percent below 10; inactive means the rest.
Lab note: assign the record to one of active, inactive

Example cases with answers are listed next.
molecule	assigned.class
O=C1/C(=C\c2ccc(F)cc2)CN(C(=O)c2ccccc2)C/C1=C\c1ccc(F)cc1	inactive
Cn1ccnc1C(=O)/C=C/c1ccc(C(=O)Nc2ccccc2O)cc1	active
COc1ccc(C2=NN(C(=O)COc3ccc(Cl)cc3)C(O)(c3cc(F)c(Cl)cc3Cl)C2)cc1 (centres undefined)	inactive
O=[N+]([O-])c1cccc([I+]c2ccccc2)c1	inactive
COC(=O)[C@]12CC[C@@H](C)[C@H](C)[C@@H]1C1=CC[C@@H]3[C@@]4(C)C[C@@H](OC(C)=O)[C@H](O)[C@@](C)(COC(C)=O)[C@@H]4[C@H](O)C[C@@]3(C)[C@]1(C)CC2	active

## Input What call does the record list for CC1=NN(c2ccc(Cl)cc2)CC1(C)N=O (centres undefined) ?
## Output inactive

## Input Likewise for "Cn1ccnc1C(=O)/C=C/c1ccc(C(=O)Nc2nc3ccccc3[nH]2)cc1" ?
## Output inactive

## Input # iterate: COc1cccc(C2C3=C(COC3=O)N(CCO)c3cc4c(cc32)OCO4)c1 (centres undefined)
## Output active

## Input Also check Cc1ccccc1NC(=O)c1sc2nc(C)c(C(C)O)cc2c1N (centres undefined)
## Output active

## Input Next entry: "COc1ccc(-c2cc(C(=O)Nc3ccc(C)cc3)nc3[nH]c(=O)sc23)cc1"
## Output inactive

## Input One more molecule: "O=C(/C=C/c1c[nH]c2ccccc12)c1cc2ccccc2o1"
## Output inactive

## Input Please give the result for "NC(=S)N/N=C/c1cc(-c2cccc(N)c2)ccn1" too.
## Output active

## Input Next: O=C1OCC2=C1C(c1ccc(Cl)c(Cl)c1)c1cc3c(cc1N2CCO)CCC3 (centres undefined)
## Output active

## Input Try this molecule too: "CCN1CCN(c2nc(C)cc(NCc3cc(Nc4ccnc5cc(Cl)ccc45)ccc3F)n2)CC1"
## Output active

## Input Moving on to "COc1cc(-c2nn(-c3cccc(NC(=O)NCCNS(=O)(=O)c4ccc(Cl)cc4)c3)cc2-c2ccncc2)ccc1Cl"
## Output active

## Input Record: "CC1(C)CC[C@]23CC[C@]4(C)[C@H](CC[C@@H]5[C@@]6(C)C/C(=C/c7ccncc7)C(=O)C(C)(C)[C@@H]6CC[C@]54C)[C@H]2[C@H]1OC3=O"
## Output inactive

## Input // query: "O=C(Oc1cccnc1)c1ccsc1Nc1ccnc(C(F)(F)F)c1"
## Output inactive

## Input And for "Clc1ccc2c(NCCCCNc3nc(N4CCOCC4)nc4ccccc34)ccnc2c1" ?
## Output active

## Input How about this molecule: "CN(C)c1ccc2cc(-c3ccccc3F)c(N)nc2c1"
## Output active
